Ref: patent US8614227B2

Assay Text: in vivo
Run Conditions: male, beagle, dog, po, 10 mg/kg, Tmax
Experimental Endpoint: Tmax (h)

Cpd Smiles: COc1ccc2c(c1OCc1ccccc1)C[C@@H](C(=O)O)N(C(=O)C(c1ccccc1)c1ccccc1)C2
Unit Label: h
Numeric Value: 1

====

Assay Text: Pharmacokinetics in male beagle dogs after a single oral dose (plasma Compound 1)
Run Conditions: dog, 10 mg/kg, Tmax, Table 42 summary, median, dogs, single oral 10 mg/kg, plasma Compound 1
Experimental Endpoint: Tmax (min)

Cpd Smiles: COc1ccc2c(c1OCc1ccccc1)C[C@@H](C(=O)[O-])N(C(=O)C(c1ccccc1)c1ccccc1)C2.[Na+]
Unit Label: min
Numeric Value: 45

====

Assay Text: Compound 2 solubility in solvents and buffers (saturated, 24 h shaking, HPLC)
Format: physicochemical
Run Conditions: 50 mM borate buffer, aqueous buffer, thermodynamic from solid; pH 9 buffer (borate, 50 mM)

Cpd Smiles: COc1ccc2c(c1OCc1ccccc1)C[C@@H](C(=O)[O-])N(C(=O)C(c1ccccc1)c1ccccc1)C2.[Na+]
Unit Label: µg/mL
solubility at 24 h: 5300

====

Assay Text: Pharmacokinetics in male beagle dogs after a single oral dose (plasma Compound 1)
Run Conditions: dog, 10 mg/kg, mean Cmax, male beagle dogs, single oral 10 mg/kg capsule, fasted, Compound 1 in plasma, mean±SD
Experimental Endpoint: Cmax

Cpd Smiles: COc1ccc2c(c1OCc1ccccc1)C[C@@H](C(=O)[O-])N(C(=O)C(c1ccccc1)c1ccccc1)C2.[Na+]
Result: 1590 ng/mL

====

Assay Text: Pharmacokinetics in male beagle dogs after a single oral dose (plasma Compound 1)
Run Conditions: dog, 10 mg/kg, Mean harmonic T1/2, male beagle dogs, single oral 10 mg/kg capsule, fasted, Compound 1 in plasma

Cpd Smiles: COc1ccc2c(c1OCc1ccccc1)C[C@@H](C(=O)[O-])N(C(=O)C(c1ccccc1)c1ccccc1)C2.[Na+]
half-life: 2.49 h

====

Assay Text: Pharmacokinetics in male beagle dogs after a single oral dose (plasma Compound 1)
Run Conditions: dog, 10 mg/kg, Tmax, dog 303, single oral 10 mg/kg dose, plasma Compound 1

Cpd Smiles: COc1ccc2c(c1OCc1ccccc1)C[C@@H](C(=O)[O-])N(C(=O)C(c1ccccc1)c1ccccc1)C2.[Na+]
Tmax / min: 45

====

Assay Text: Compound 2 solubility in solvents and buffers (saturated, 24 h shaking, HPLC)
Type: physicochemical
Run Conditions: methanol, organic solvent or mixture, thermodynamic from solid

Cpd Smiles: COc1ccc2c(c1OCc1ccccc1)C[C@@H](C(=O)[O-])N(C(=O)C(c1ccccc1)c1ccccc1)C2.[Na+]
solubility at 24 h: > 50 mg/mL

====

Assay Text: Pharmacokinetics in male beagle dogs after a single oral dose (plasma Compound 1)
Run Conditions: dog, 10 mg/kg, T1/2, dog 304, single oral 10 mg/kg dose, plasma Compound 1
Experimental Endpoint: half-life (h)

Molecule: COc1ccc2c(c1OCc1ccccc1)C[C@@H](C(=O)[O-])N(C(=O)C(c1ccccc1)c1ccccc1)C2.[Na+] [Compound 2]
Experimental Endpoint: half-life
Unit Label: h
Numeric Value: 2.81

====

Assay Text: in vivo
Run Conditions: male, beagle, dog, po, 10 mg/kg, Mean harmonic T1/2
Experimental Endpoint: half-life (h)

Cpd Smiles: COc1ccc2c(c1OCc1ccccc1)C[C@@H](C(=O)O)N(C(=O)C(c1ccccc1)c1ccccc1)C2
Unit Label: h
Numeric Value: 2.11

====

Assay Text: Compound 2 solubility in solvents and buffers (saturated, 24 h shaking, HPLC)
Assay type: physicochemical
Run Conditions: iso-propanol, organic solvent or mixture, thermodynamic from solid; IPA

Compound: COc1ccc2c(c1OCc1ccccc1)C[C@@H](C(=O)[O-])N(C(=O)C(c1ccccc1)c1ccccc1)C2.[Na+] [Compound 2]
Unit Label: µg/mL
solubility at 24 h: 700

====

Assay Text: Pharmacokinetics in male beagle dogs after a single oral dose (plasma Compound 1)
Run Conditions: dog, 10 mg/kg, AUC(0-inf), dog 301, single oral 10 mg/kg dose, plasma Compound 1

Compound: COc1ccc2c(c1OCc1ccccc1)C[C@@H](C(=O)[O-])N(C(=O)C(c1ccccc1)c1ccccc1)C2.[Na+] [Compound 2]
AUC(0-inf) [ng·h/mL]: 1300

====

Assay Text: pKa of Compound 1
Format: physicochemical

Cpd Smiles: COc1ccc2c(c1OCc1ccccc1)C[C@@H](C(=O)O)N(C(=O)C(c1ccccc1)c1ccccc1)C2
pKa: ~3.86

====

Assay Text: Compound 2 solubility in solvents and buffers (saturated, 24 h shaking, HPLC)
Format: physicochemical
Run Conditions: 50 mM phosphate buffer, aqueous buffer, thermodynamic from solid; pH 7 buffer (phosphate, 50 mM)

Molecule: COc1ccc2c(c1OCc1ccccc1)C[C@@H](C(=O)[O-])N(C(=O)C(c1ccccc1)c1ccccc1)C2.[Na+] [Compound 2]
Unit Label: µg/mL
solubility at 24 h: 1700

====

Assay Text: Pharmacokinetics in male beagle dogs after a single oral dose (plasma Compound 1)
Run Conditions: dog, 10 mg/kg, T1/2, dog 301, single oral 10 mg/kg dose, plasma Compound 1

Cpd Smiles: COc1ccc2c(c1OCc1ccccc1)C[C@@H](C(=O)[O-])N(C(=O)C(c1ccccc1)c1ccccc1)C2.[Na+]
half-life: 2.51 h

====

Assay Text: Compound 2 solubility in solvents and buffers (saturated, 24 h shaking, HPLC)
Format: physicochemical
Run Conditions: 50 mM phosphate buffer, aqueous buffer, thermodynamic from solid; pH 2 buffer (phosphate, 50 mM)

Cpd Smiles: COc1ccc2c(c1OCc1ccccc1)C[C@@H](C(=O)[O-])N(C(=O)C(c1ccccc1)c1ccccc1)C2.[Na+]
solubility at 24 h: < 1 µg/mL

====

Assay Text: Compound 2 solubility in solvents and buffers (saturated, 24 h shaking, HPLC)
Format: physicochemical
Run Conditions: 50 mM phosphate buffer, aqueous buffer, thermodynamic from solid; pH 1 buffer (phosphate, 50 mM), room temperature 24 h

Molecule: COc1ccc2c(c1OCc1ccccc1)C[C@@H](C(=O)[O-])N(C(=O)C(c1ccccc1)c1ccccc1)C2.[Na+] [Compound 2]
solubility at 24 h: < 1 µg/mL

====

Assay Text: Pharmacokinetics in male beagle dogs after a single oral dose (plasma Compound 1)
Run Conditions: dog, 10 mg/kg, Tmax, median of dogs (Mean column), single oral 10 mg/kg dose, plasma Compound 1
Experimental Endpoint: Tmax (min)

Cpd Smiles: COc1ccc2c(c1OCc1ccccc1)C[C@@H](C(=O)[O-])N(C(=O)C(c1ccccc1)c1ccccc1)C2.[Na+]
Numeric Value: 45

====

Assay Text: Compound 2 solubility in solvents and buffers (saturated, 24 h shaking, HPLC)
Format: physicochemical
Run Conditions: acetonitrile, organic solvent or mixture, thermodynamic from solid

Cpd Smiles: COc1ccc2c(c1OCc1ccccc1)C[C@@H](C(=O)[O-])N(C(=O)C(c1ccccc1)c1ccccc1)C2.[Na+]
solubility at 24 h: 12 mg/mL

====

Assay Text: Pharmacokinetics in male beagle dogs after a single oral dose (plasma Compound 1)
Run Conditions: dog, 10 mg/kg, AUC(0-T), dog 304, single oral 10 mg/kg dose, plasma Compound 1
Experimental Endpoint: AUC(0-t)

Cpd Smiles: COc1ccc2c(c1OCc1ccccc1)C[C@@H](C(=O)[O-])N(C(=O)C(c1ccccc1)c1ccccc1)C2.[Na+]
Result: 2180 ng·h/mL

====

Assay Text: Pharmacokinetics in male beagle dogs after a single oral dose (plasma Compound 1)
Run Conditions: dog, 10 mg/kg, Cmax, dog 303, single oral 10 mg/kg dose, plasma Compound 1
Experimental Endpoint: Cmax (ng/mL)

Cpd Smiles: COc1ccc2c(c1OCc1ccccc1)C[C@@H](C(=O)[O-])N(C(=O)C(c1ccccc1)c1ccccc1)C2.[Na+]
Numeric Value: 1750

====

Assay Text: Pharmacokinetics in male beagle dogs after a single oral dose (plasma Compound 1)
Run Conditions: dog, 10 mg/kg, T1/2, dog 303, single oral 10 mg/kg dose, plasma Compound 1

Compound: COc1ccc2c(c1OCc1ccccc1)C[C@@H](C(=O)[O-])N(C(=O)C(c1ccccc1)c1ccccc1)C2.[Na+] [Compound 2]
half-life: 2.05 h

====

Assay Text: Pharmacokinetics in male beagle dogs after a single oral dose (plasma Compound 1)
Run Conditions: dog, 10 mg/kg, AUC(0-T), dog 302, single oral 10 mg/kg dose, plasma Compound 1

Cpd Smiles: COc1ccc2c(c1OCc1ccccc1)C[C@@H](C(=O)[O-])N(C(=O)C(c1ccccc1)c1ccccc1)C2.[Na+]
Unit Label: ng·h/mL
AUC(0-t): 2350

====

Assay Text: Pharmacokinetics in male beagle dogs after a single oral dose (plasma Compound 1)
Run Conditions: dog, 10 mg/kg, T1/2, harmonic mean of dogs, single oral 10 mg/kg dose, plasma Compound 1

Cpd Smiles: COc1ccc2c(c1OCc1ccccc1)C[C@@H](C(=O)[O-])N(C(=O)C(c1ccccc1)c1ccccc1)C2.[Na+]
Unit Label: h
half-life: 2.49

====

Assay Text: Pharmacokinetics in male beagle dogs after a single oral dose (plasma Compound 1)
Run Conditions: dog, 10 mg/kg, AUC(0-inf), dog 303, single oral 10 mg/kg dose, plasma Compound 1
Experimental Endpoint: AUC(0-inf) (ng·h/mL)

Compound: COc1ccc2c(c1OCc1ccccc1)C[C@@H](C(=O)[O-])N(C(=O)C(c1ccccc1)c1ccccc1)C2.[Na+] [Compound 2]
Experimental Endpoint: AUC(0-inf)
Unit Label: ng·h/mL
Numeric Value: 1520
